Tested on: OVCAR-3 ovarian
measurement notes: NCI tumour cell line growth inhibition, 48 h
value type: TGI

Could you tell me which TGI is on file for CC[C@@]1(O)C(=O)N(CCN(C)C)Cc2c1cc1n(c2=O)Cc2cc3ccccc3nc2-1 ?
> 100 µM

Could you tell me which TGI is on file for CCOC(=O)N1c2c(c3ccccc3n2C(=O)OCC)C(=O)C(OC)N1C(=O)OCC (stereo not drawn) ?
> 100 µM

Could you tell me which TGI is on file for CN(C)CC1CCCCCCCCCCC1=O (stereo not drawn) ?
> 100 µM

====

Assign TGI to each entry below.
System: EKVX NSCLC
measurement notes: NCI tumour cell line growth inhibition, 48 h

Could you tell me which TGI is on file for Nc1nn2cc(-c3ccccc3)[n+](CC(=O)c3ccccc3)c2s1 ?
> 100 µM

Could you tell me which TGI is on file for CC(C)N(C(=O)C12C3C4C5C3C1(C(=O)N(C(C)C)C(C)C)C5C42)C(C)C (stereo not drawn) ?
> 100 µM

Could you tell me which TGI is on file for CC1CC(=O)CC[C@@H]1OCc1ccccc1 (stereo partly drawn) ?
> 100 µM

====

Test system: HL-60(TB) leukemia
measurement notes: NCI tumour cell line growth inhibition, 48 h
*1 amine or outer side, *2 acyl side, *3 side chain or, on linkers, in order; H or OH if unused. Where a SMILES comes first, the peptide text is derived from it. [ ]: non-standard residue; d: D form. The star is where a group is joined. X12 = NCCCCC(N[*:1])C(=O)CN1CCCC1C(=O)[*:2]; Pentadecanoyl = CCCCCCCCCCCCCCC(=O)*
Assign log10 TGI to each entry below.
Scale: decimal log of TGI, TGI in µM.

Could you tell me which log10 TGI is on file for O=C(Nc1ccc(Oc2cccc(Cl)c2)c(Cl)c1)c1cccnc1 ?
0.79

Could you tell me which log10 TGI is on file for CCCCOc1nc2ccccc2cc1C1CNC(=O)c2ccccc2N1 (stereo not drawn) ?
0.28

Could you tell me which log10 TGI is on file for Cc1cc(=O)oc2c(CN(CCCl)CCCl)c(O)ccc12 ?
1.44

Could you tell me which log10 TGI is on file for c1ccc2c(c1)[C@@H]1O[C@@H]1[C@@]13O[C@@]21[C@H]1O[C@H]1c1ccccc13 ?
1.61

Could you tell me which log10 TGI is on file for CC1[C@@H]2C[C@@H]3O[C@@]34[C@H]3CCC5Cc6nc7c(nc6C[C@@]5(C)C3(O)CC(=O)[C@@]24CO[C@]12OC(C)(C)CC2O)CC1CC[C@@H]2C3=C[C@H]4O[C@@]5(O[C@@](C)(CO)C[C@@H]5O)C(C)[C@@]4(O)[C@]3(C)[C@@H](O)CC2[C@]1(C)C7 (stereo partly drawn) ?
-1.52

Could you tell me which log10 TGI is on file for Oc1cccc(-c2cn3cc(Cl)ccc3n2)c1 ?
1.75

Could you tell me which log10 TGI is on file for CCCCCCCCCCCCCCC(=O)NC(CCCCN)C(=O)CN1CCCC1C(=O)NCC(=O)NC(Cc1ccccc1)C(=O)N1CCCC1C(=O)NC(CO)C(=O)NC(Cc1ccc(O)cc1)C(=O)NC(CCCCN)C(=O)NC(CC(C)C)C(=O)NC(CCCN=C(N)N)C(=O)N1CCCC1C(=O)NCC(N)=O (stereo not drawn) (Pentadecanoyl-[X12]GFPSYKLRPG-NH2; configuration not given here) ?
1.96

Could you tell me which log10 TGI is on file for O=C(OCC(OC(=O)c1ccccc1)C1CC(C(O)C2CCCCC2)C(=O)O1)c1ccccc1 (stereo not drawn) ?
1.57

Could you tell me which log10 TGI is on file for CC(=O)O[C@H]1Cc2c([nH]c3ccccc23)[C@@H](c2ccc(Cl)cc2)N1C(=O)CCNC(C)(C)C ?
1.07

Could you tell me which log10 TGI is on file for C[C@@H]1CC(=O)[C@@]2(C)[C@](O)(CCC3O[C@]32C)[C@@]12CC(c1ccoc1)OC2=O (stereo partly drawn) ?
1.80

Could you tell me which log10 TGI is on file for O=C(c1nc2ccccc2[nH]1)C1C(c2cccc([N+](=O)[O-])c2)C2CC3CCCCC3N2[C@@]12C(=O)Nc1cc(Cl)ccc12 (stereo partly drawn) ?
0.82

Could you tell me which log10 TGI is on file for CO/C=C(/C(=O)OC)c1ccccc1[C@H]1C[C@@H]1c1ccccc1 ?
1.80

Could you tell me which log10 TGI is on file for Cc1cccc(-c2cc(=O)c3cc(C)cnc3[nH]2)c1 ?
-0.45

Could you tell me which log10 TGI is on file for CCN(Cc1cccc(C)c1)c1ccc(CO)c(Cl)c1 ?
1.61

Could you tell me which log10 TGI is on file for CCOC(=O)N1c2c(c3ccccc3n2C(=O)OCC)C(=O)C(OC)N1C(=O)OCC (stereo not drawn) ?
1.70

Could you tell me which log10 TGI is on file for CC1CN=C(N(C(=O)Nc2ccccc2)C2CCCCC2)S1 (stereo not drawn) ?
1.55

Could you tell me which log10 TGI is on file for COc1ccc(OC)c(/C=C/C(=O)c2ccc(SC)cc2)c1 ?
1.10

====

System: 786-0 renal
measurement notes: NCI tumour cell line growth inhibition, 48 h
value type: GI50

Could you tell me which GI50 is on file for COc1ccc(OC)c(/C=C/C(=O)c2ccc(SC)cc2)c1 ?
7.53 µM

Could you tell me which GI50 is on file for Cn1ccnc1C(=O)/C=C/c1ccc(CC(=O)Nc2cc(F)c(F)c(F)c2)cc1 ?
2.44 µM

Could you tell me which GI50 is on file for CCc1cc(Nc2nccc(-c3c(-c4ccc(OC)c(C(=O)Nc5c(F)cccc5F)c4)nc4ccccn34)n2)c(OC)cc1N1CCC(N2CCN(S(C)(=O)=O)CC2)CC1 ?
> 100 µM

Could you tell me which GI50 is on file for COc1cc(C2CC(c3cc(Cl)c(C)cc3O)=NN2c2ccc(S(N)(=O)=O)cc2)cc(OC)c1OC (configuration not stated) ?
2.21 µM

Could you tell me which GI50 is on file for O=C(c1nc2ccccc2[nH]1)C1C(c2cccc([N+](=O)[O-])c2)C2CC3CCCCC3N2[C@@]12C(=O)Nc1cc(Cl)ccc12 (some centres not stated) ?
1.89 µM

Could you tell me which GI50 is on file for CCn1c(-c2nonc2N)nc2c(C#CC(C)(C)O)ncc(OCC3CCNCC3)c21 ?
6.11 µM

Could you tell me which GI50 is on file for S=C1NC2=C(CCOc3c2ccc2ccccc32)C(c2ccc(Cl)cc2)N1 (configuration not stated) ?
50.5 µM

====

Assign TGI to each entry below.
Test system: OVCAR-4 ovarian
measurement notes: NCI tumour cell line growth inhibition, 48 h

Could you tell me which TGI is on file for COc1cc2ccc(C(=O)O)cc2cc1OC ?
> 100 µM

Could you tell me which TGI is on file for COC1OC(=O)C(OC)C(OC)C1OC (stereo not given) ?
> 100 µM

Could you tell me which TGI is on file for O=C(N(C1=CCCC1)N(c1ccccc1)c1ccccc1)C(F)(F)F ?
> 100 µM

Could you tell me which TGI is on file for Cc1nc(C)c(C(=O)NNC(=O)c2ccccc2)cc1C(=O)NNC(=O)c1ccccc1 ?
> 100 µM

Could you tell me which TGI is on file for O=C1NC(=Nc2ccccc2Cl)SC1C(=O)Nc1ccc([N+](=O)[O-])cc1[N+](=O)[O-] (stereo not given) ?
> 100 µM

Could you tell me which TGI is on file for Cc1cnc2[nH]c(-c3sccc3C)cc(=O)c2c1 ?
> 100 µM

Could you tell me which TGI is on file for CC1=CCC(=O)[C@]2(C)C(CC(=O)O)[C@]3(C)C4=C(C)C(c5ccoc5)C[C@@H]4O[C@@H]3[C@H](O)[C@@H]12 (stereo not given in full) ?
> 100 µM

Could you tell me which TGI is on file for CC(=O)[O-].CC(=O)[O-].CC(=O)[O-].CC(=O)[O-].CO.CO.CO.[Rh+2].[Rh+2].c1ccc(-c2ccccn2)nc1 ?
> 100 µM

Could you tell me which TGI is on file for S=C1NC2=C(CCOc3c2ccc2ccccc32)C(c2ccc(Cl)cc2)N1 (stereo not given) ?
> 100 µM

Could you tell me which TGI is on file for O=C(Nc1ccc(Oc2cccc(Cl)c2)c(Cl)c1)c1cccnc1 ?
> 50 µM

Could you tell me which TGI is on file for C/C(=N\Nc1nc2ccccc2n1C)c1ccncn1 ?
> 100 µM

Could you tell me which TGI is on file for O=C(O)c1ccccc1/C=C1/Nc2ccccc2C1=O ?
> 100 µM

Could you tell me which TGI is on file for CCN(CC)Cc1cc(Nc2c3ccc(Cl)cc3nc3c(C)cccc23)ccc1O ?
2.97 µM

Could you tell me which TGI is on file for O=C1CCc2c(sc3ncnc(Nc4cccc(Br)c4)c23)C1 ?
8.63 µM

Could you tell me which TGI is on file for O=C(/C=C/c1ccc(OCCCOc2ccc(/C=C/C(=O)c3ccc(Cl)cc3)cc2)cc1)c1ccc(Cl)cc1 ?
> 100 µM
